Recorded TGI by entry
System: SNB-19 CNS
experiment: NCI tumour cell line growth inhibition, 48 h
endpoint_label: TGI

>>> print(df.to_string())
                                    molecule  endpoint_label    result
 0  CN1C(=O)N(C)C2C1NN=c1s/c(=C\c3ccccc3F)c(=O)n12 (stereo not drawn)             TGI  > 100 µM
 1  COC(=O)[C@@]12CCCC(=O)[C@@H]1[C@H]1CCC[C@H]12             TGI  > 100 µM
 2  Cc1ccccc1OCC(COC(=O)Nc1ccccc1)OC(=O)Nc1ccccc1 (stereo not drawn)             TGI   89.4 µM
 3  CCOc1ccc(N=NC2C(=O)N(C(=O)CC(=O)Nc3ccc(C)cc3)N=C2C)cc1 (stereo not drawn)             TGI     51 µM
 4  O=C1C(=C/C=C2/SC(c3ccccc3)(c3ccccc3)c3ccccc32)C(=O)c2ccccc21             TGI  > 100 µM
 5  Cn1c2c(c3ccccc31)C1C(=O)N(c3ccccc3)C(=O)C1CC2 (stereo not drawn)             TGI  > 303 µM
 6  CC(=O)CC(=O)Nc1c(C)[c]([Hg][O]C(C)=O)c(C)[c]([Hg][O]C(C)=O)[c]1[Hg][O]C(C)=O             TGI   6.61 µM
 7            NC(=O)NC(=O)c1cccc(NC(=O)CI)c1             TGI   14.7 µM
 8   NC(=O)c1c2c(n3ccccc13)C(=O)c1ccccc1C2=O             TGI  > 100 µM
 9          CCCCCCCCCCCC(=O)c1c(O)cc(C)oc1=O             TGI  > 100 µM
10  CC(=O)N1N=C(c2cc(C)ccc2O)CC1c1cccc(Cl)c1 (stereo not drawn)             TGI   28.5 µM
11  COC(=O)C(CCC1C=CN(S(=O)(=O)c2ccc(C)cc2)C1)N=Cc1ccccc1 (stereo not drawn)             TGI  > 100 µM
12     O=c1c(O)c(-c2ccccc2)n(O)c2ccc(Cl)cc12             TGI  > 100 µM

###

Tested on: HT29 colon
experiment: NCI tumour cell line growth inhibition, 48 h
endpoint_label: TGI

>>> print(df.to_string())
                                 mol_smiles  endpoint_label    result
0   CCOC(=O)c1nc2ccccc2nc1Nc1ccc(Cl)c(Cl)c1             TGI  > 100 µM
1      CC(C)=CCC/C(C)=C/CC/C(C)=C/CCN(C)CCO             TGI   23.3 µM
2  COc1ccc(NC(=S)N=Nc2c(O)[nH]c3ccccc23)cc1             TGI  > 100 µM

###

System: EKVX NSCLC
experiment: NCI tumour cell line growth inhibition, 48 h
endpoint_label: TGI

>>> df
                                    molecule  experimental_system     result
 0  O=C1CC[C@@]2(O)[C@H]3Cc4ccc(-c5cccc(O)c5)c5c4[C@@]2(CCN3CC2CC2)[C@H]1O5           EKVX NSCLC  > 30.4 µM
 1  COS(=O)(=O)OCCC(NC(=O)OCc1ccccc1)C(=O)OCc1ccccc1 (configuration not stated)           EKVX NSCLC   > 100 µM
 2        N#Cc1ccc(Oc2nc3ccccc3nc2C(=O)O)cc1           EKVX NSCLC   > 100 µM
 3   CCN(CC)CCOc1nc2c3ccc(Cl)cc3nn2c2ccccc12           EKVX NSCLC    9.71 µM
 4  O=C(CCc1n[nH]c(=S)o1)Nc1cc(Cl)c(Cl)cc1Cl           EKVX NSCLC   > 100 µM
 5  Cc1ccc2nc(-n3c(/C=C/c4ccccc4O)nc4ccccc4c3=O)sc2c1           EKVX NSCLC   > 100 µM
 6  CN1C(=O)/C(=C/c2c(Cl)[nH]c3ccccc23)c2ccccc21           EKVX NSCLC   > 100 µM
 7  Cc1ccc(NC(=O)C(=O)C(C2C(C)CC(=O)C2CC(=O)O)[N+](=O)[O-])cc1 (configuration not stated)           EKVX NSCLC   > 100 µM
 8             CC(C)=CCC/C(C)=C\CC/C(C)=C/CO           EKVX NSCLC   > 100 µM
 9  COc1ccc2c(c1)CCC1C2CCC2(C)C3=CC(O)CCC3CC12 (configuration not stated)           EKVX NSCLC    36.2 µM
10              S=c1[nH]n2c(Cc3ccccc3)nnc2s1           EKVX NSCLC   > 100 µM
11  CCOc1ccc(N=NC2C(=O)N(C(=O)CC(=O)Nc3ccc(C)cc3)N=C2C)cc1 (configuration not stated)           EKVX NSCLC    40.9 µM

###

Tested on: HOP-92 NSCLC
experiment: NCI tumour cell line growth inhibition, 48 h
Recorded GI50 by entry
endpoint_label: GI50

                                 mol_smiles      result
0  C[C@H](O)CNc1cc(-c2[nH]c3cccnc3c2-c2ccc(F)cc2)ccn1     1590 nM
1  C/C=C(\C)C(=O)O[C@H]1C=CC(=O)O[C@H]1CC[C@H](O)[C@H](C)O     6300 nM
2    Cc1ccc(-c2cc3c(NC(=O)C4CC4)ncnc3o2)cc1  > 25000 nM
3  Cc1cc(C)c(C#N)c(SCC(=O)c2sc3c(C#N)c(C)cc(C)[n+]3c2[O-])n1      514 nM

###

System: MDA-N
experiment: NCI tumour cell line growth inhibition, 48 h
Recorded TGI by entry
endpoint_label: TGI

In [3]: df
Out[3]:
                                    compound  experimental_system  endpoint_label    result
 0  CCOc1ccc(NC(=O)C(=O)C2C(=O)Nc3ccccc3S2=O)cc1 (stereo unspecified)                MDA-N             TGI  > 100 µM
 1  C=C(CN(C)C)C(=O)c1ccc(OC2OC(COC(C)=O)C(OC(C)=O)C(OC(C)=O)C2OC(C)=O)cc1 (stereo unspecified)                MDA-N             TGI   11.1 µM
 2  CC1=C(C(=O)NNC(=O)c2ccccc2)CC(C(=O)NNC(=O)c2ccccc2)=C(C)N1                MDA-N             TGI  > 100 µM
 3  COc1ccc2cc(C(=O)Nc3ccc(O)c(C(=O)O)c3)ccc2c1OC                MDA-N             TGI  > 100 µM
 4  N#Cc1c(-c2ccc(Cl)cc2)cc(-c2ccc(Nc3ccnc4cc(C(F)(F)F)ccc34)cc2)nc1N                MDA-N             TGI  > 100 µM
 5  Cc1cn(CCCCCCOC(=O)NC(CCCN=C(N)N)C(=O)O)c(=O)[nH]c1=O (stereo unspecified)                MDA-N             TGI  > 100 µM
 6  COc1ccc(C(=O)N/N=C2\C(=O)c3c(C)cc(C)cc3CC2(C)C)cc1                MDA-N             TGI   39.3 µM
 7  CCCCCc1cc2cc3c(c(O)c2c(=O)[nH]1)C1(CC3)C(O)=c2c(=O)c3c(=O)cc(OC)c(=O)c=3c(=O)c2=C1O (stereo unspecified)                MDA-N             TGI   3.71 µM
 8  CCCCCC(/C=C/C1CCC(=O)C1)OCOCCOC (stereo unspecified)                MDA-N             TGI  > 100 µM
 9  O=C1C(=C/C=C2/SC(c3ccccc3)(c3ccccc3)c3ccccc32)C(=O)c2ccccc21                MDA-N             TGI  > 100 µM
10          O=C1C(=O)c2c(O)ccc(O)c2C(O)=C1Cl                MDA-N             TGI  > 100 µM

###

Test system: TK-10 renal
experiment: NCI tumour cell line growth inhibition, 48 h

compound	TGI
COc1ccc2c(c1)OCC1c3cc(O)ccc3OC21 (centres undefined)	> 100 µM
COc1cc2c(/C=C3/C(=O)Nc4ccc(O)cc43)c(Cl)[nH]c2cc1C	26.1 µM
CC(C)OP(=O)(OC(C)C)C([CH2][Sn]([CH3])([CH3])[Cl])P(=O)(OC(C)C)OC(C)C	69.9 µM
Cc1cnc(Cl)nc1C(C#N)c1nc2ccccc2s1 (centres undefined)	78.4 µM
O=C(Nc1ccccc1)c1cc(S(=O)(=O)Nc2nc3ncccc3[nH]2)c(SSc2cc(Cl)c(C(=O)Nc3ccccc3)cc2S(=O)(=O)Nc2nc3ncccc3[nH]2)cc1Cl	> 100 µM
C[C@]12Cc3cn[nH]c3C(=O)C1CC[C@@H]1C2CC[C@@]2(C)C1CC[C@]2(C)O (some centres undefined)	> 100 µM
CC(C)=CCC/C(C)=C/CC/C(C)=C/CCN(C)CCO	19.4 µM
C=C1C[C@@H](O)[C@@H](Br)C(C)(C)[C@@]12C=CC(O)(CBr)CC2 (some centres undefined)	> 100 µM
Cc1ccc(S(=O)(=O)NC2C(=O)c3ccccc3C(=O)C2n2ccnc2)cc1 (centres undefined)	> 100 µM
NCCCCCCn1c2c(c3ccccc3c1=O)C(=O)c1ccccc1-2	3.82 µM
CC1=C(C(=O)Nc2cc(F)c(F)cc2F)C(c2ccc3c(c2)OCO3)C(C(=O)Nc2cc(F)c(F)cc2F)=C(C)N1	64.8 µM
COP1(=O)OCc2cnccc2O1 (centres undefined)	> 100 µM
N#Cc1ccc(Oc2nc3ccccc3nc2C(=O)O)cc1	> 100 µM
CC(C)c1cccc(C(C)C)c1NC(=S)N=Nc1cc(C(C)(C)C)c(O)c(C(C)(C)C)c1	71.5 µM
COC(=O)c1nn(-c2ccccc2)c(=O)cc1N=[N+]=[N-]	> 100 µM
CC1CC(C)CN(S(=O)(=O)c2cc(Cl)c(Oc3ccc([N+](=O)[O-])cc3Cl)c(Cl)c2)C1 (centres undefined)	> 100 µM
CCCCCCCCCCCCCCCCCCNc1ccn(C2OC(CO)C(OP(=O)(O)OCC(COP(=O)(O)OCC3OC(n4cc(F)c(NCCCCCCCCCCCCCCCCCC)nc4=O)CC3O)OC(=O)CCCCCCCCCCCCCCC)C2O)c(=O)n1 (centres undefined)	> 100 µM
N#CC(NCCc1ccccc1)c1ccccc1 (centres undefined)	> 100 µM
CNc1cc(OCc2ccccc2)c(OC)cc1C(=O)N1CCC[C@H]1CO	> 100 µM
